test system: SN12C renal; assay: NCI tumour cell line growth inhibition, 48 h

>  <compound>
C[C@@H]1C[N+]2([O-])[C@H]3C4=CCC[C@@H]4CC[C@H]3[C@@]3(C)OC(=O)CC[C@]34CC[C@H]1[C@@H]42 (stereo not given in full)

>  <testSystem>
SN12C renal

>  <GI50>
> 60 µM

$$$$
>  <compound>
CCCS(=O)(=O)Nc1ccc(F)c(C(=O)c2c[nH]c3ncc(Cl)cc23)c1F

>  <testSystem>
SN12C renal

>  <GI50>
7.66 µM

$$$$
>  <compound>
CN1CCc2c(c3ccccc3c3ccccc23)C1

>  <testSystem>
SN12C renal

>  <GI50>
3.74 µM

$$$$
>  <compound>
COc1cc(NCCCCCN=C(N)N)c2ncccc2c1

>  <testSystem>
SN12C renal

>  <GI50>
3.57 µM

$$$$
>  <compound>
CCn1cc(C(=O)O)c(=O)c2cc(F)c(N3CCN(S(=O)(=O)c4ccc(Cl)cc4)CC3)cc21

>  <testSystem>
SN12C renal

>  <GI50>
2.92 µM

$$$$
>  <compound>
Nc1nc2c(c3ncccc13)C(c1cccc(Br)c1)Cc1ncccc1-2 (stereo not given)

>  <testSystem>
SN12C renal

>  <GI50>
3.51 µM

$$$$
>  <compound>
CCOC(=O)[C@H]1O[C@@H]1C(=O)N[C@@H](CC(C)C)C(=O)NCCc1ccc(O)cc1

>  <testSystem>
SN12C renal

>  <GI50>
> 100 µM

$$$$
>  <compound>
O=C(Nc1ccc(CN2CCOCC2)cc1)c1ccc(-c2cc(Cl)ccc2Cl)o1

>  <testSystem>
SN12C renal

>  <GI50>
16.4 µM

$$$$
>  <compound>
O=c1c2ccc3cccc4c(=O)c5ccc6cccc1c6c5-c2c34

>  <testSystem>
SN12C renal

>  <GI50>
> 50 µM

$$$$
>  <compound>
CCOC(=O)N1C/C(=C/c2ccc(F)cc2)C(=O)/C(=C/c2ccc(F)cc2)C1

>  <testSystem>
SN12C renal

>  <GI50>
1.59 µM

$$$$

###

tested on: M19-MEL melanoma; experiment: NCI tumour cell line growth inhibition, 48 h
# TGI per entry

>  <compound>
CC1CC2OC(=O)CC2C[C@@H]1O[Si](C)(C)C(C)(C)C (stereo partly specified)

>  <TGI>
> 100 µM

$$$$
>  <compound>
O=C1CCCCCCCCCCC(=O)N2CCOCCOCCN1Cc1cccc(n1)C2

>  <TGI>
> 100 µM

$$$$
>  <compound>
COc1ccc(C2C(Cl)C(=O)N2NC(=O)c2ccc(N)cc2)cc1 (stereo unspecified)

>  <TGI>
> 100 µM

$$$$
>  <compound>
O=C1C2c3[nH]c4ccccc4c3C3CCCC3C2C(=O)N1c1ccccc1 (stereo unspecified)

>  <TGI>
> 100 µM

$$$$
>  <compound>
O=C1CN2C(Cl)(Cl)C2(c2ccccc2)c2cc(Cl)ccc2N1CC1CC1 (stereo unspecified)

>  <TGI>
93.8 µM

$$$$
>  <compound>
COc1ccc(NC(=O)/C(Cc2nc3ccccc3[nH]c2=O)=N\O)c(OC)c1

>  <TGI>
> 100 µM

$$$$
>  <compound>
O=C1C2C=CC(n3[nH]c(=O)n(Cc4ccccc4)c3=O)CC2C(=O)N1c1cccc(Cl)c1 (stereo unspecified)

>  <TGI>
> 100 µM

$$$$
>  <compound>
N#CC(/C(CCCC(=O)Nc1cccc([N+](=O)[O-])c1)=N/NC(=O)c1cc2ccccc2cc1O)c1ccccc1 (stereo unspecified)

>  <TGI>
34.9 µM

$$$$
>  <compound>
COC(=O)c1cc(OC(C)=O)c2c(OC)ccc(OC)c2c1

>  <TGI>
> 100 µM

$$$$
>  <compound>
CC1CC(c2ccc([N+](=O)[O-])cc2)=Nc2ccccc2S1 (stereo unspecified)

>  <TGI>
26.7 µM

$$$$
>  <compound>
C=C1CCC2C(C)(CO)C(O)CCC2(C)C1CC(O)/C(=C/CO)C(=O)O (stereo unspecified)

>  <TGI>
> 100 µM

$$$$
